FYI, the data here is from PubChem BioAssay AID493203.

# protocolDescription: qHTS Assay for NPC1 Promoter Activators: Initial hit validation from the primary screen
# assayConditions: Huh7 NPC1 promoter-luciferase reporter, luminescence, 24 h; series mostly up to 46.1 µM
Inconclusive results are not listed. The source made the active and inactive calls. Calls come from the whole dose curve; as a rule, active = well fitted activation curve with a large enough effect; inconclusive = small, poorly fitted or top-dose-only effect; inactive = flat fitted curve, though single readings scatter.
Assign a class; possible classes are active, inactive

The following molecules have reported results that may help.
Cc1ccc(C(=O)Nc2nnc(S(=O)(=O)N3CCOCC3)s2)cc1 :: inactive
CC(Sc1nnc(C(F)(F)F)n1C)C(=O)Nc1ccc(S(N)(=O)=O)cc1 (stereo unspecified) :: inactive
CCOC(=O)c1ccc(-c2nnc(-c3ccc(Cl)cc3Cl)o2)cc1 :: active

Task item: Each molecule tested received a call. Report the one for `COc1cccc(CNC(=O)CN(c2cc(C)cc(C)c2)S(=O)(=O)c2c(C)noc2C)c1` .
Reply: inactive

Task item: Write down the call the test reported for this molecule. Item: `CC(C)(C)C(=O)N/C(N)=N/c1nc2ccccc2o1`
Reply: active

###

# protocolDescription: qHTS Assay for NPC1 Promoter Activators: Initial hit validation from the primary screen
# assayConditions: Huh7 NPC1 promoter-luciferase reporter, luminescence, 24 h; series mostly up to 46.1 µM
Results filed as inconclusive are left out. Calls of active or inactive are those of the source. Calls follow the shape of the dose curve; as a rule, active = well fitted activation curve with a large enough effect; inconclusive = small, poorly fitted or top-dose-only effect; inactive = flat fitted curve, though single readings scatter.
I would appreciate it if you answered using one of these outcomes: active, inactive

Here's what some known entries look like.
CCOC(=O)c1csc(COc2ccc(OC)cc2)n1 :: active
C=CCc1ccc(OCCOCCNCCOC)c(OC)c1 :: inactive
O=C(CCCC(=O)N(CC(=O)NC1CCCCC1)c1cccc(F)c1)Nc1ccccn1 :: inactive
COc1ccc(S(=O)(=O)N2CCCC(C(=O)NCc3ccncc3)C2)cc1Cl (stereo unspecified) :: inactive

Task item: Called result for `COc1ccc(-c2csc(N(CCCN(C)C)C(=O)c3ccccc3C)n2)cc1`
Reply: inactive

Task item: Entry `Cc1nc(-c2ccc(S(=O)(=O)Oc3ccc(Cl)cc3Cl)s2)cs1` : call = ?
Reply: inactive

###

# protocolDescription: qHTS Assay for NPC1 Promoter Activators: Initial hit validation from the primary screen; note: potency is the fitted concentration of half-maximal effect
# assayConditions: Huh7 NPC1 promoter-luciferase reporter, luminescence, 24 h; series mostly up to 46.1 µM
Records with an inconclusive call do not appear. Activity calls are given as the source filed them. Calls follow the shape of the dose curve; as a rule, active = well fitted activation curve with a large enough effect; inconclusive = small, poorly fitted or top-dose-only effect; inactive = flat fitted curve, though single readings scatter.
measuredAttribute: Potency

Worked set:
O=C(O)C1=CC[C@@H](c2ccc(Cl)cc2)N(S(=O)(=O)c2ccc(Cl)cc2)[C@H]1c1ccccc1 :: inactive
N#C/C(=C\c1ccc[nH]1)C(=O)Nc1ccccc1Cl :: 3970 nM (active)
COC(=O)c1ccccc1NC(=O)c1ccc(-c2ccc(Br)cc2)o1 :: inactive
CC(=O)[C@@H]1[C@@H](C(=O)c2ccc(C)cc2)[C@]2(C(=O)Nc3ccccc32)[C@H]2C=Cc3cc(F)ccc3N12 :: inactive
COc1ccc(/C=C\C(=O)c2c(O)ccc3c(C)cc(=O)oc23)cc1OC :: inactive

Give Potency for each of the items listed below.
1. CCN(CC(=O)N(CC(C)C)c1c(N)n(CC(C)C)c(=O)[nH]c1=O)Cc1nc2ccccc2c(=O)[nH]1
2. CC1=C(C(=O)OC2CCCC(C)C2)C(c2ccccc2)NC(=O)N1 (stereo not drawn)
3. O=C(COc1ccccc1F)Nc1ccc(-c2nc3ccccc3s2)cc1
4. CNC(=O)Cn1nc(C)c2ccccc2c1=O
5. CC(C)(C)NC(=S)NNC(=O)c1ccc2ncccc2c1
6. CCOC(=O)c1cc2sccc2n1CC(=O)N1CCCc2ccccc21

Reply:
["inactive", "inactive", "250 nM (active)", "inactive", "3530 nM (active)", "inactive"]
